target: PI3Kδ (p110δ/p85α) (Homo sapiens (Human), UniProt O00329); assay: PI3Kδ scintillation proximity assay (Example A3); type: biochemical; settings: 20 μM ATP, 20 μM PIP2, 4 nM PI3Kδ; read-out: PI3Kδ SPA IC50
Sequence (O00329 whole entry): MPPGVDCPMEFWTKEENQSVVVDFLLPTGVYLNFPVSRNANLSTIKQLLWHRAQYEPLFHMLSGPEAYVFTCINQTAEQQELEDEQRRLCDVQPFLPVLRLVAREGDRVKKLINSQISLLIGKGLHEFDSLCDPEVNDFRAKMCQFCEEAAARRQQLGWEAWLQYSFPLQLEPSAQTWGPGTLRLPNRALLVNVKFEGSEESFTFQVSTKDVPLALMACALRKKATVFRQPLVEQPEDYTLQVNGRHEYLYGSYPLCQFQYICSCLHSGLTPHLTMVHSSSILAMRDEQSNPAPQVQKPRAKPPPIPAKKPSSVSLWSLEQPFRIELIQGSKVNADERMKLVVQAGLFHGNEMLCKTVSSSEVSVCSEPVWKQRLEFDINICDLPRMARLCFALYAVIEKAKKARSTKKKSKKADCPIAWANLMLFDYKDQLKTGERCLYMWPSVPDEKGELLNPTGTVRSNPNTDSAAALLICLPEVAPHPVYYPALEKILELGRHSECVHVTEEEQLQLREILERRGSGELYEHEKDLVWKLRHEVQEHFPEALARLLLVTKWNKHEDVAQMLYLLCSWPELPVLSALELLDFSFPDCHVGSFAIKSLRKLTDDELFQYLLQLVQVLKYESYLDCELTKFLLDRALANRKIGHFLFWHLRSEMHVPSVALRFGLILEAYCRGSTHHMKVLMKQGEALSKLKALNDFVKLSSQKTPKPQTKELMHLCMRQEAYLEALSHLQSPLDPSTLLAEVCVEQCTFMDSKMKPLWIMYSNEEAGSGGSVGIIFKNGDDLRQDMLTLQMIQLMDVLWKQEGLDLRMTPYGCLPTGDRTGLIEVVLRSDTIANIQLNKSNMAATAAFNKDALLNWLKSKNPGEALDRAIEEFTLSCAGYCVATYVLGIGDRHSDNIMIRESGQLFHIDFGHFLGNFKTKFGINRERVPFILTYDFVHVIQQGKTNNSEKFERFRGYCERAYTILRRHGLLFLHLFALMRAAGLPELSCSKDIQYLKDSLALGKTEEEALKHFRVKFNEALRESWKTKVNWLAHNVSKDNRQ
Sequence (P27986 whole entry partner): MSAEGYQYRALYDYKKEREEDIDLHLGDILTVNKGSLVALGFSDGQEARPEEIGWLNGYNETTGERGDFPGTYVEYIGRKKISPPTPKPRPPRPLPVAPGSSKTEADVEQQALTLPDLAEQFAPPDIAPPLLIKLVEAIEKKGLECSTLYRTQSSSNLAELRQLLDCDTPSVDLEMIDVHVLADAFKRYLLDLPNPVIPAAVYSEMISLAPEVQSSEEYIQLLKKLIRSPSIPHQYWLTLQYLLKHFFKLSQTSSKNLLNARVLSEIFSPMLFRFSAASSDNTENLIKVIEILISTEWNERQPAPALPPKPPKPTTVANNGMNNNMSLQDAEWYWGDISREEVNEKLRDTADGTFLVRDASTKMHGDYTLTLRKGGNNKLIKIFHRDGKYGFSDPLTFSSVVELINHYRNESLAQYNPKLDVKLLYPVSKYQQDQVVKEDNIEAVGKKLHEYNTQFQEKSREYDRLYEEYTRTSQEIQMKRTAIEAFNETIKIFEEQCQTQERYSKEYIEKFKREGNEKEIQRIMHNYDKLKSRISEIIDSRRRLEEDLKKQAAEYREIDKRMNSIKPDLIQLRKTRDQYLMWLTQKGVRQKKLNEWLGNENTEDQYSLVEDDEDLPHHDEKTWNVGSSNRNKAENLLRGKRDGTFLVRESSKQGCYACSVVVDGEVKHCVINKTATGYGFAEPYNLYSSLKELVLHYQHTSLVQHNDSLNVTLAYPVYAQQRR
endpoint label: IC50

Ask | Given the entry CCOc1c(C(C)n2nc(C)c3c(N)ncnc32)cc(Cl)c(C#N)c1C1CN(CCO)C1 (single isomer, unassigned) [Example 219] , report its measured IC50.
Reply | ≤ 10 nM

Ask | Given the entry COc1c(C(C)n2nc(-c3cnn(C)c3)c3c(N)ncnc32)cc(Cl)c(C)c1C1CN(CC#N)C1 (racemic) [Example 125, bis(trifluoroacetate)] , report its measured IC50.
Reply | ≤ 10 nM

Ask | Given the entry COc1c(C(C)n2nc(C)c3c(N)ncnc32)cc(Cl)c(C#N)c1C1CN(CC(C)C)C1 (single isomer, unassigned) [Example 265] , report its measured IC50.
Reply | ≤ 10 nM

----------
Please respond with reported IC50 for every item in the list.
Molecular target: PI3Kδ (p110δ/p85α) (Homo sapiens (Human), UniProt O00329)
Test: PI3Kδ scintillation proximity assay (Example A3)
Settings: 20 μM ATP, 20 μM PIP2, 4 nM PI3Kδ; read-out: PI3Kδ SPA IC50
Protocol: [γ-^33P]ATP (10 mCi/mL) was purchased from Perkin-Elmer (Waltham, Mass.). […] PI3Kδ (p110δ/p85α) was purchased from Millipore (Bedford, Mass.). ATP, MgCl2, DTT, EDTA, MOPS and CHAPS were purchased from Sigma-Aldrich (St. Louis, Mo.). Wheat Germ Agglutinin (WGA) YSi SPA Scintillation Beads was purchased from GE healthcare life sciences (Piscataway, N.J.). The kinase reaction was conducted in polystyrene 384-well matrix white plate from Thermo Fisher Scientific in a final volume of 25 μL. […]

Ask | Given the entry CCN1CC(c2c(Cl)c(Cl)cc(C(C)n3nc(C)c4c(N)ncnc43)c2OC)C1 (single isomer, unassigned) , report its measured IC50.
Reply | ≤ 10 nM

Ask | Given the entry CCOc1c(C(C)n2nc(C)c3c(N)ncnc32)cc(Cl)c(C#N)c1C1CN(C(=O)C2CC2)C1 (single isomer, unassigned) , report its measured IC50.
Reply | ≤ 10 nM

Ask | Given the entry CCOc1c(C(C)n2nc(C)c3c(N)ncnc32)cc(Cl)c(C#N)c1C1CN(S(=O)(=O)C2CC2)C1 (single isomer, unassigned) , report its measured IC50.
Reply | ≤ 10 nM

----------
Please respond with reported IC50 for every item in the list.
target: PI3Kδ (p110δ/p85α) (Homo sapiens (Human), UniProt O00329); assay: PI3Kδ scintillation proximity assay (Example A3); details: 20 μM ATP, 20 μM PIP2, 4 nM PI3Kδ; read-out: PI3Kδ SPA IC50

Ask | Given the entry CCOc1c(C(C)n2nc(C)c3c(N)ncnc32)cc(Cl)c(C#N)c1C1CNC(=O)O1 (single isomer, unassigned) [323 (3rd peak)] , report its measured IC50.
Reply | 50 to 200 nM

Ask | Given the entry COc1c(C(C)n2nc(C)c3c(N)ncnc32)cc(Cl)c(C#N)c1C1CN(CC(C)(C)O)C1 (stereo not drawn) [Example 271] , report its measured IC50.
Reply | ≤ 10 nM

Ask | Given the entry CCOc1c(C(C)n2nc(-c3ccncc3)c3c(N)ncnc32)cc(Cl)c(C)c1-c1ccc(C(=O)N(C)C)nc1 (racemic) [Example 60, tris(trifluoroacetate)] , report its measured IC50.
Reply | ≤ 10 nM

Ask | Given the entry COc1c(C(C)n2nc(C)c3c(N)ncnc32)cc(Cl)c(C)c1C1CNC(=O)CO1 (single isomer, unassigned) [324 (1st peak)] , report its measured IC50.
Reply | 50 to 200 nM

Ask | Given the entry CCOc1c(C(C)n2nc(CF)c3c(N)ncnc32)cc(Cl)c(C)c1-c1ccc(C(=O)N(C)C)nc1 (racemic) [Example 86, bis(trifluoroacetate)] , report its measured IC50.
Reply | ≤ 10 nM

Ask | Given the entry CCOc1c(C(C)n2nc(C)c3c(N)ncnc32)cc(Cl)c(F)c1C1CNC(=O)C1 (single isomer, unassigned) [Example 345] , report its measured IC50.
Reply | 50 to 200 nM

----------
target: PI3Kδ (p110δ/p85α) (Homo sapiens (Human)); experiment: PI3Kδ scintillation proximity assay (Example A3); details: 20 μM ATP, 20 μM PIP2, 4 nM PI3Kδ; read-out: PI3Kδ SPA IC50
endpoint label: IC50

Ask | Given the entry CCOc1c(C(C)n2nc(C)c3c(N)ncnc32)cc(Cl)c(C)c1-c1cncc(C(=O)N(C)C)c1 (centres unmarked) , report its measured IC50.
Reply | ≤ 10 nM

Ask | Given the entry COc1c(C(C)n2nc(C)c3c(N)ncnc32)cc(Cl)c(C)c1C1CN(C(=O)c2cnoc2C)C1 (single isomer, unassigned) , report its measured IC50.
Reply | ≤ 10 nM

Ask | Given the entry CCOc1c(C(C)n2nc(C)c3c(N)ncnc32)cc(C)c(C#N)c1C1CN(CC(C)O)C1 (stereo in doubt) , report its measured IC50.
Reply | ≤ 10 nM

Ask | Given the entry CCOc1c(C(C)n2nc(-c3cccnc3)c3c(N)ncnc32)cc(Cl)c(C)c1-c1ccc(C(=O)N(C)C)nc1 (racemic) [Example 61, tris(trifluoroacetate)] , report its measured IC50.
Reply | ≤ 10 nM

Ask | Given the entry CCOc1c(C(C)n2nc(C)c3c(N)ncnc32)cc(Cl)c(C#N)c1-c1ccnc(C(=O)N(C)C)c1 (single isomer, unassigned) , report its measured IC50.
Reply | ≤ 10 nM

Ask | Given the entry CCOc1c(C(C)n2nc(C(F)F)c3c(N)ncnc32)cc(Cl)c(F)c1C1CN(C)C1 (racemic) , report its measured IC50.
Reply | ≤ 10 nM

Ask | Given the entry CCOc1c(C(C)n2nc(C)c3c(N)ncnc32)cc(Cl)c(C#N)c1C1CNC(=O)C1 (single isomer, unassigned) [Example 351] , report its measured IC50.
Reply | 50 to 200 nM

Ask | Given the entry COc1c(C(C)n2nc(C)c3c(N)ncnc32)cc(Cl)c(C)c1C1CN(CC(N)=O)C1 (centres unmarked) , report its measured IC50.
Reply | ≤ 10 nM

Ask | Given the entry CCOc1c(C(C)n2nc(C)c3c(N)ncnc32)cc(Cl)c(F)c1C1CN(CCO)C1 (centres unmarked) , report its measured IC50.
Reply | ≤ 10 nM

Ask | Given the entry COc1c(C(C)n2nc(C)c3c(N)ncnc32)cc(Cl)c(C)c1-c1ccc(N(C)C)nc1 (single isomer, unassigned) , report its measured IC50.
Reply | ≤ 10 nM

Ask | Given the entry COc1c(C(C)n2nc(C)c3c(N)ncnc32)cc(Cl)c(C)c1-c1cnn(CCO)c1 (single isomer, unassigned) [20 (1st peak)] , report its measured IC50.
Reply | ≤ 10 nM

Ask | Given the entry CCOc1c(C(C)n2nc(C)c3c(N)ncnc32)cc(Cl)c(C)c1-c1cnn(CC(=O)N(C)C)c1 (single isomer, unassigned) , report its measured IC50.
Reply | ≤ 10 nM

Ask | Given the entry COc1c(C(C)n2nc(C)c3c(N)ncnc32)cc(Cl)c(C)c1-c1cnn(CCO)c1 (single isomer, unassigned) [20 (2nd peak)] , report its measured IC50.
Reply | 50 to 200 nM

Ask | Given the entry COc1c(C(C)n2nc(C)c3c(N)ncnc32)cc(Cl)c(C)c1-c1ccnc(C(=O)N(C)CCO)c1 (racemic) , report its measured IC50.
Reply | ≤ 10 nM

Ask | Given the entry COc1c(C(C)n2ccc(=O)c3c(N)ncnc32)cc(Cl)c(C)c1-c1cccc(S(=O)(=O)N(C)C)c1 (racemic) [Example 32, bis(trifluoroacetate)] , report its measured IC50.
Reply | ≤ 10 nM

Ask | Given the entry CCOc1c(C(C)n2nc(CO)c3c(N)ncnc32)cc(Cl)c(C)c1-c1ccc(C(=O)N(C)C)nc1 (racemic) [Example 83, bis(trifluoroacetate)] , report its measured IC50.
Reply | ≤ 10 nM

Ask | Given the entry COc1c(C(C)n2nc(C)c3c(N)ncnc32)cc(Cl)c(C)c1C1CN(C(=O)C2(O)CC2)C1 (single isomer, unassigned) , report its measured IC50.
Reply | ≤ 10 nM

Ask | Given the entry COc1c(C(C)n2nc(C)c3c(N)ncnc32)cc(Cl)c(C)c1C1CN(C(=O)C(C)(C)O)C1 (single isomer, unassigned) , report its measured IC50.
Reply | ≤ 10 nM

Ask | Given the entry CCOc1c(C(C)n2nc(C)c3c(N)ncnc32)cc(Cl)c(F)c1C1CNC(=O)C1 (single isomer, unassigned) [Example 348] , report its measured IC50.
Reply | 50 to 200 nM

Ask | Given the entry COc1c(C(C)n2nc(C)c3c(N)ncnc32)cc(Cl)c(C)c1-c1cncc(C(=O)N2CC(C#N)C2)c1 (centres unmarked) , report its measured IC50.
Reply | ≤ 10 nM

Numbers sourced from patent US9707233B2.
